Documented concentration at 4 h across a set of molecules
PROTOCOL: Short term HFD mouse model: liver and plasma exposure after multiple oral dosing
Type: in vivo, mice (C57BL/6J)
REPORTED_CONDITIONS: C57BL/6J, liver, HFD mice, three oral doses of 1.5 mg/kg each, 4 h after final dose, read-out: liver exposure, 4 h
MEASURED_ENDPOINT: concentration at 4 h (µM)

[[record]]
molecule = "CCOC(=O)c1ccc(CN(Cc2ccc(-c3cccc(C(C)(C)C(=O)O)c3)cc2)C(=O)c2c(C)ccc3ccccc23)o1 [27/28]"
test_value = 4.3

[[record]]
molecule = "Cc1ccc2ccccc2c1C(=O)N(Cc1ccc(-c2cccc(C(C)(C)C(=O)O)c2)cc1)Cc1ccc(C(F)(F)F)o1 [27/26]"
test_value = 6.73

